Numbers sourced from patent US8932597B2.

tested on: anti-M2 human monoclonal antibody Z3G1; format: binding
quantity.measured: Signal (peptides that bind to Z3G1)
Keep it simple and answer with nothing but the number.

Qu. I am curious: what Signal (peptides that bind to Z3G1) value has been reported for 1294 (MSLLVEVETPIRNEWGCRCN; epitope peptide) [compound 1294] ?
Ans. 2732

Qu. I am curious: what Signal (peptides that bind to Z3G1) value has been reported for 297 (CSLLTEVGMCLCTCV; epitope peptide) [compound 297] ?
Ans. 2649

Qu. I am curious: what Signal (peptides that bind to Z3G1) value has been reported for 337 (SLLTEVETPIRNEWGCRCNYSSD; epitope peptide) [compound 337] ?
Ans. 2475

Qu. I am curious: what Signal (peptides that bind to Z3G1) value has been reported for 1283 (MSLLGEVETPIRNEWGCRCN; epitope peptide) [compound 1283] ?
Ans. 2717

Qu. I am curious: what Signal (peptides that bind to Z3G1) value has been reported for 612 (SLLTEVETPIRNEWGCRCIDSSD; epitope peptide) [compound 612] ?
Ans. 2450

Qu. I am curious: what Signal (peptides that bind to Z3G1) value has been reported for 373 (CSLLTECGMSLLTEV; epitope peptide) [compound 373] ?
Ans. 1235

Qu. I am curious: what Signal (peptides that bind to Z3G1) value has been reported for 1261 (MPLLTEVETPIRNEWGCRCN; epitope peptide) [compound 1261] ?
Ans. 2521

Qu. I am curious: what Signal (peptides that bind to Z3G1) value has been reported for 288 (CSCLCEVGMSLLTEV; epitope peptide) [compound 288] ?
Ans. 1812

Qu. I am curious: what Signal (peptides that bind to Z3G1) value has been reported for 557 (MSCLTEVGCSLLTEV; epitope peptide) [compound 557] ?
Ans. 2506

Qu. I am curious: what Signal (peptides that bind to Z3G1) value has been reported for 1344 (MCLCTCVGMSLLCEV; epitope peptide) [compound 1344] ?
Ans. 2431

Qu. I am curious: what Signal (peptides that bind to Z3G1) value has been reported for 1311 (MSLLTEVYTPIRNEWGCRCN; epitope peptide) [compound 1311] ?
Ans. 2181

Qu. I am curious: what Signal (peptides that bind to Z3G1) value has been reported for 1475 (CETPIRNEWGSLLTEVETPCEVETPIRNE; epitope peptide; MISC_FEATURE (1)..(1): C is an attachment site for a CLIP; MISC_FEATURE (10)..(10): G is an attachment site for a CLIP; MISC_FEATURE (11)..(11): S is an attachment site for a CLIP; MISC_FEATURE (29)..(29): E is an attachment site for a CLIP) [compound 1475] ?
Ans. 2642

Qu. I am curious: what Signal (peptides that bind to Z3G1) value has been reported for 456 (CSLLTECGMSLLCEV; epitope peptide) [compound 456] ?
Ans. 1640

Qu. I am curious: what Signal (peptides that bind to Z3G1) value has been reported for 1293 (MSLLSEVETPIRNEWGCRCN; epitope peptide) [compound 1293] ?
Ans. 2790

Qu. I am curious: what Signal (peptides that bind to Z3G1) value has been reported for 513 (MCLLTEVGMSLLTEV; epitope peptide) [compound 513] ?
Ans. 2697

Qu. I am curious: what Signal (peptides that bind to Z3G1) value has been reported for 393 (SLLTEVETPIRNEWGCRCNLSSD; epitope peptide) [compound 393] ?
Ans. 2634
